Sourced from patent US20060122189A1

biological target: serotonin reuptake sites (Rattus norvegicus, UniProt P31652); construct: from tissue; assay: In vitro affinity for serotonin reuptake sites ([3H]-paroxetine binding); settings: read-out: 5-HT reuptake binding pKi (converted)
Sequence (P31652 whole entry): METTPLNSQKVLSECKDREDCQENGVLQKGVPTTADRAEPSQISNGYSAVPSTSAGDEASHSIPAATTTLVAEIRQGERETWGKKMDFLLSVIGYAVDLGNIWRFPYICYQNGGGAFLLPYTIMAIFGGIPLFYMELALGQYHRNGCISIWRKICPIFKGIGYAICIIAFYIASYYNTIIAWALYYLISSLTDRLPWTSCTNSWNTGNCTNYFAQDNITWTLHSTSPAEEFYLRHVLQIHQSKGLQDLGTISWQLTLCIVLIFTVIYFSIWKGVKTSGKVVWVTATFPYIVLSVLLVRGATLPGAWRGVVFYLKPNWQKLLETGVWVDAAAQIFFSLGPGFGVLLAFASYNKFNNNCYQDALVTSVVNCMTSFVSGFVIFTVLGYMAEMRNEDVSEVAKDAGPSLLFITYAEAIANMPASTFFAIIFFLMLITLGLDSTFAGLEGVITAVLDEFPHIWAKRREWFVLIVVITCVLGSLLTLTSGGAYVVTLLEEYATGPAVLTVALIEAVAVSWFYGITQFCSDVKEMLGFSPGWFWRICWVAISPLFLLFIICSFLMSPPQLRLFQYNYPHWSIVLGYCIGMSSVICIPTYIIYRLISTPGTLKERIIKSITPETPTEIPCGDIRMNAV
Parameter measured: Ki (nM)
Expressed in nM, but write only the number.

Check out these entries, answers already filled in.
What measured Ki goes with Cn1c(=O)oc2c(N3CCN(CCCCc4csc5ccc(C#N)cc45)CC3)cccc21 ? 3.16

Further, for O=c1[nH]c2cccc(N3CCN(CCCc4csc5ccc(F)cc45)CC3)c2o1 ? 1.26

Another molecule to look at: O=c1[nH]c2cccc(N3CCN(CCCCn4ccc5ccc(F)cc54)CC3)c2o1 0.794

What about this molecule? N#Cc1ccc2occ(CCCCN3CCN(c4cccc5[nH]c(=O)oc45)CC3)c2c1 0.158

And the next one, Cn1c(=O)oc2c(N3CCN(CCC#Cc4ccc5ccc(F)cc5c4)CC3)cccc21 ? 2

Would you kindly look at the next entry?
Consider the molecule O=c1[nH]c2cccc(N3CCN(CCCc4csc5ccc(Cl)cc45)CC3)c2o1 and give its measured Ki. 3.16

* * *

Below, each entry is listed alongside its reported Dopamine-D2 cAMP accum ε (intrinsic activity).
target: Human dopamine D2,L receptors (Homo sapiens); construct: host or cells: CHO-K1; experiment: Inhibition of forskolin-induced [3H]-cAMP accumulation in CHO-K1 cells; format: cell-based; conditions: cloned human dopamine D2,L receptors; full agonist ε=1, full antagonist ε=0
Sequence (P14416 whole entry): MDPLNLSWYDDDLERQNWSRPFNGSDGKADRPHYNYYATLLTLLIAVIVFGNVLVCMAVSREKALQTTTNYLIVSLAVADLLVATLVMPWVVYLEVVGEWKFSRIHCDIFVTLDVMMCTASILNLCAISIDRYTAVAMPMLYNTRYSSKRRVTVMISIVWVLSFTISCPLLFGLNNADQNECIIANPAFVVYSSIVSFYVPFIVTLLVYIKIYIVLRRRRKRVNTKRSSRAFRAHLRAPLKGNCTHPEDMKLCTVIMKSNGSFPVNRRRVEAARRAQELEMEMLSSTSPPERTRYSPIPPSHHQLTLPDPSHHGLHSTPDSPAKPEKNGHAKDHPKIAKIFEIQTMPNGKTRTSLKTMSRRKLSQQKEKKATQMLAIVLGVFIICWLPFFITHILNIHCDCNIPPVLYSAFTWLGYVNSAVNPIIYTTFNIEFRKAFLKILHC

// solved cases for Dopamine-D2 cAMP accum ε (intrinsic activity) follow
Given the entry O=c1[nH]c2cccc(N3CCN(CCCc4csc5ccc(Cl)cc45)CC3)c2o1 , report its measured Dopamine-D2 cAMP accum ε (intrinsic activity). 0.39

What do you have for Cn1c(=O)oc2c(N3CCN(CCCCc4csc5ccc(C#N)cc45)CC3)cccc21 ? 0.70

Quick one: N#Cc1ccc2occ(CCCCN3CCN(c4cccc5[nH]c(=O)oc45)CC3)c2c1 0.85

Follow-up item: O=c1[nH]c2cccc(N3CCN(CCCc4csc5ccc(F)cc45)CC3)c2o1 0.10

Let us now turn to Cn1c(=O)oc2c(N3CCN(CCC#Cc4ccc5ccc(F)cc5c4)CC3)cccc21 0.45

***
Quick one: Dopamine-D2 cAMP accum ε (intrinsic activity) for O=c1[nH]c2cccc(N3CCN(CCCCn4ccc5ccc(F)cc54)CC3)c2o1 ? 0.73
